- experimental_system: DNA topoisomerase II (Homo sapiens) (UniProt P11388+Q02880)
- test_method_notes: Inhibition of DNA topoisomerase II at 100 uM.
- Type: protein assay
measured_quantity: inhibition (%)
The response must be a number in % with no trailing unit.

Example entries and their recorded answers appear below.
COc1cc([C@@H]2c3cc4c(cc3[C@@H](Nc3ccccc3Cl)[C@H]3COC(=O)[C@H]23)OCO4)cc(OC)c1O: 25
COc1cc([C@@H]2c3cc4c(cc3[C@@H](Nc3cccc(O)c3)[C@H]3COC(=O)[C@H]23)OCO4)cc(OC)c1OC: 25
COc1cc([C@@H]2c3cc4c(cc3[C@@H](O[C@@H]3O[C@@H]5CO[C@@H](C)O[C@H]5[C@H](O)[C@H]3O)[C@H]3COC(=O)[C@H]23)OCO4)cc(OC)c1O [ETOPOSIDE]: 75

Which inhibition is listed for COc1cc([C@@H]2c3cc4c(cc3[C@@H](Nc3ccc(O)cc3)[C@H]3COC(=O)[C@H]23)OCO4)cc(OC)c1OC ?
25

Another: COc1cc([C@@H]2c3cc4c(cc3[C@@H](Nc3cccc(Br)c3)[C@H]3COC(=O)[C@H]23)OCO4)cc(OC)c1O
25

---

- Species on record: Homo sapiens
- test_method_notes: Cellular protein-DNA complex formation at 10 uM.
- Format: functional
- Design: reference not given here
measured_quantity: Complex formation (%)
Report as a plain number; the unit % is understood.

Worked cases, answers included:
COc1cc([C@@H]2c3cc4c(cc3[C@@H](Nc3cccc(O)c3)[C@H]3COC(=O)[C@H]23)OCO4)cc(OC)c1OC: 37
COc1cc([C@@H]2c3cc4c(cc3[C@@H](O[C@@H]3O[C@@H]5CO[C@@H](C)O[C@H]5[C@H](O)[C@H]3O)[C@H]3COC(=O)[C@H]23)OCO4)cc(OC)c1O [ETOPOSIDE]: 100
COc1cc([C@@H]2c3cc4c(cc3[C@@H](Nc3ccccc3Cl)[C@H]3COC(=O)[C@H]23)OCO4)cc(OC)c1O: 32
COc1cc([C@@H]2c3cc4c(cc3[C@@H](Nc3ccccc3F)[C@H]3COC(=O)[C@H]23)OCO4)cc(OC)c1O: 121
COc1cc([C@@H]2c3cc4c(cc3[C@@H](Nc3ccc(O)cc3)[C@H]3COC(=O)[C@H]23)OCO4)cc(OC)c1OC: 21

Kindly consider the entry below.
Which measured Complex formation value corresponds to COc1cc([C@@H]2c3cc4c(cc3[C@@H](Nc3ccc(Cl)cc3)[C@H]3COC(=O)[C@H]23)OCO4)cc(OC)c1O ?
99

---

- test_method_notes: In vitro cytotoxicity against KB cells after a 3-day incubation.
- Assay type: functional
- measurement_setup: Homo sapiens, 72 h, read-out: ID50 (the source's name)
measured_quantity: IC50 (nM)
Give a bare numeral; the unit nM is implied.

Record excerpt, results attached:
COc1cc([C@@H]2c3cc4c(cc3[C@@H](Nc3cccc(O)c3)[C@H]3COC(=O)[C@H]23)OCO4)cc(OC)c1O: 450
COc1cc([C@@H]2c3cc4c(cc3[C@@H](O[C@@H]3O[C@@H]5CO[C@@H](C)O[C@H]5[C@H](O)[C@H]3O)[C@H]3COC(=O)[C@H]23)OCO4)cc(OC)c1O [ETOPOSIDE]: 200

Here is another compound to look at.
Which IC50 value belongs to COc1cc([C@@H]2c3cc4c(cc3[C@@H](Nc3cccc(O)c3)[C@H]3COC(=O)[C@H]23)OCO4)cc(OC)c1OC ?
310

---

- experimental_system: DNA topoisomerase II (Homo sapiens) (UniProt P11388+Q02880)
- test_method_notes: Evaluated for inhibitory activity against DNA topoisomerase II
- Format: protein assay
Response field label takes TRUE when ID50 is strictly below 20 µM and FALSE in all other cases.

Some solved cases for reference:
COc1cc([C@@H]2c3cc4c(cc3[C@@H](Nc3ccc(O)cc3)[C@H]3COC(=O)[C@H]23)OCO4)cc(OC)c1O: FALSE
COc1cc([C@@H]2c3cc4c(cc3[C@@H](Nc3cc(F)cc(F)c3)[C@H]3COC(=O)[C@H]23)OCO4)cc(OC)c1O: FALSE
COc1cc([C@@H]2c3cc4c(cc3[C@@H](Nc3cccc(F)c3)[C@H]3COC(=O)[C@H]23)OCO4)cc(OC)c1O: FALSE
COc1cc([C@@H]2c3cc4c(cc3[C@@H](Nc3ccc(Br)cc3)[C@H]3COC(=O)[C@H]23)OCO4)cc(OC)c1O: FALSE
COc1cc([C@@H]2c3cc4c(cc3[C@@H](Nc3cccc(O)c3)[C@H]3COC(=O)[C@H]23)OCO4)cc(OC)c1O: TRUE
COc1cc([C@@H]2c3cc4c(cc3[C@@H](Nc3ccc(F)cc3)[C@H]3COC(=O)[C@H]23)OCO4)cc(OC)c1O: TRUE
COc1cc([C@@H]2c3cc4c(cc3[C@@H](Nc3ccccc3O)[C@H]3COC(=O)[C@H]23)OCO4)cc(OC)c1O: FALSE
COc1cc([C@@H]2c3cc4c(cc3[C@@H](Nc3ccc(Cl)cc3)[C@H]3COC(=O)[C@H]23)OCO4)cc(OC)c1O: FALSE

Quick check: ID50 of COc1cc([C@@H]2c3cc4c(cc3[C@@H](O[C@@H]3O[C@@H]5CO[C@@H](C)O[C@H]5[C@H](O)[C@H]3O)[C@H]3COC(=O)[C@H]23)OCO4)cc(OC)c1O [ETOPOSIDE] under 20 µM?
FALSE

---

Recorded IC50 values for a group of molecules are listed next.
- test_method_notes: In vitro cytotoxicity against KB cells after a 3-day incubation.
- Format: functional
- measurement_setup: Homo sapiens, 72 h, read-out: ID50 (the source's name)
Numeric only. Scale: nM

Worked cases, IC50 given:
COc1cc([C@@H]2c3cc4c(cc3[C@@H](Nc3ccc(O)cc3)[C@H]3COC(=O)[C@H]23)OCO4)cc(OC)c1OC: 590
COc1cc([C@@H]2c3cc4c(cc3[C@@H](Nc3cc(F)cc(F)c3)[C@H]3COC(=O)[C@H]23)OCO4)cc(OC)c1O: 1080
COc1cc([C@@H]2c3cc4c(cc3[C@@H](Nc3cccc(Cl)c3)[C@H]3COC(=O)[C@H]23)OCO4)cc(OC)c1O: 2290
COc1cc([C@@H]2c3cc4c(cc3[C@@H](Nc3ccc(O)cc3)[C@H]3COC(=O)[C@H]23)OCO4)cc(OC)c1O: 2260
COc1cc([C@@H]2c3cc4c(cc3[C@@H](Nc3ccccc3F)[C@H]3COC(=O)[C@H]23)OCO4)cc(OC)c1O: 250

Field request: IC50 | item: COc1cc([C@@H]2c3cc4c(cc3[C@@H](Nc3ccc(Cl)cc3)[C@H]3COC(=O)[C@H]23)OCO4)cc(OC)c1O
220

Another molecule: COc1cc([C@@H]2c3cc4c(cc3[C@@H](Nc3ccc(F)cc3)[C@H]3COC(=O)[C@H]23)OCO4)cc(OC)c1O
240

---

Complex formation for assorted molecules
- Species on record: Homo sapiens
- test_method_notes: Cellular protein-DNA complex formation at 10 uM.
- Type: functional
- Design: reference not given here
Kindly write the number and append the unit.

Past entries and their recorded results:
COc1cc([C@@H]2c3cc4c(cc3[C@@H](Nc3ccc(I)cc3)[C@H]3COC(=O)[C@H]23)OCO4)cc(OC)c1O: 64%
COc1cc([C@@H]2c3cc4c(cc3[C@@H](Nc3cccc(O)c3)[C@H]3COC(=O)[C@H]23)OCO4)cc(OC)c1O: 290%
COc1cc([C@@H]2c3cc4c(cc3[C@@H](Nc3cccc(Cl)c3)[C@H]3COC(=O)[C@H]23)OCO4)cc(OC)c1O: 51%
COc1cc([C@@H]2c3cc4c(cc3[C@@H](Nc3ccc(F)cc3)[C@H]3COC(=O)[C@H]23)OCO4)cc(OC)c1O: 213%
COc1cc([C@@H]2c3cc4c(cc3[C@@H](Nc3cccc(Br)c3)[C@H]3COC(=O)[C@H]23)OCO4)cc(OC)c1O: 62%
COc1cc([C@@H]2c3cc4c(cc3[C@@H](Nc3cccc(F)c3)[C@H]3COC(=O)[C@H]23)OCO4)cc(OC)c1O: 158%

Can you look up the measured Complex formation of COc1cc([C@@H]2c3cc4c(cc3[C@@H](Nc3ccccc3O)[C@H]3COC(=O)[C@H]23)OCO4)cc(OC)c1OC for me?
6%

How about this molecule: COc1cc([C@@H]2c3cc4c(cc3[C@@H](Nc3ccc(O)cc3)[C@H]3COC(=O)[C@H]23)OCO4)cc(OC)c1O
211%

Next: COc1cc([C@@H]2c3cc4c(cc3[C@@H](Nc3cc(F)cc(F)c3)[C@H]3COC(=O)[C@H]23)OCO4)cc(OC)c1O
115%

Query COc1cc([C@@H]2c3cc4c(cc3[C@@H](Nc3ccc(Br)cc3)[C@H]3COC(=O)[C@H]23)OCO4)cc(OC)c1O next
179%

Input COc1cc([C@@H]2c3cc4c(cc3[C@@H](Nc3ccccc3O)[C@H]3COC(=O)[C@H]23)OCO4)cc(OC)c1O
151%

// provenance: ChEMBL document CHEMBL1125061
